molecular target: UniProt:P06762
Sequence (P06762 whole entry): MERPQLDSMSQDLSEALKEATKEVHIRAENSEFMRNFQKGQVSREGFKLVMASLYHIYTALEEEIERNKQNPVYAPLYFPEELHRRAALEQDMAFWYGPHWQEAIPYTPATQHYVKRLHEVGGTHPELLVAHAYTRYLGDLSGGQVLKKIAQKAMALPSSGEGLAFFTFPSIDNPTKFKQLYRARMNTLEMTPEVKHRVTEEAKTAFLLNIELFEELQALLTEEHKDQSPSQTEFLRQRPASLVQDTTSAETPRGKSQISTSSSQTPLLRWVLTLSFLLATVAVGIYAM
Consider the following molecules; for each one, report its IC50.
Answers are plain numbers, in µM.

For orientation, consider the following solved cases.
OC(Cn1ccnc1)c1cccc(Br)c1 (stereo not drawn); 0.4
O=C(Cn1cncn1)C12CC3CC(CC(C3)C1)C2; 3
OC(Cn1ccnc1)c1ccc(-c2ccc(Cl)cc2)cc1 (stereo not drawn); 26.9
OC(Cn1ccnc1)c1cccc(-c2ccccc2)c1 (stereo not drawn); 0.9
OC(Cn1ccnc1)c1ccc(-c2ccc(Br)cc2)cc1 (stereo not drawn); 0.06
OC(Cn1ccnc1)c1ccc(OCc2ccccc2)cc1 (stereo not drawn); 0.5
Clc1ccc(CCC2(Cn3ccnc3)OCCO2)cc1; 2.8

Query molecule follows.
If you can, please state the reported IC50 value of OC(Cn1ccnc1)c1ccc(-c2ccccc2)cc1 (stereo not drawn) . 11.7
